Entries and their ED50 values follow.
System: maximal electroshock (MES)-induced seizures
Assay: Maximal electroshock seizure (MES) test, rat (po)
Format: in vivo
Details: Rattus norvegicus, read-out: MES, ED50, rat, po

# example entries with known answers
molecule | result
COC[C@@H](NC(C)=O)C(=O)NCc1ccc(COc2cccc(F)c2)cc1 [(R)-16] | 19 mg/kg
COC[C@@H](NC(C)=O)C(=O)NCc1ccc(/C=C/c2cccc(F)c2)cc1 [(R)-14] | ~30 mg/kg

q: Indicate its recorded ED50; the molecule in question is COC[C@@H](NC(C)=O)C(=O)NCc1ccc(Oc2cccc(F)c2)cc1 [(R)-12]
a: < 10 mg/kg

q: Indicate its recorded ED50; the molecule in question is COC[C@@H](NC(C)=O)C(=O)NCc1ccc(CCc2cccc(F)c2)cc1 [(R)-13]
a: < 30 mg/kg

---

Entries and their melting point values follow.

# example entries with known answers
compound | melting point
C#CCOC[C@@H](NC(C)=O)C(=O)NCc1ccc(N=C=S)cc1 | 157 to 159 °C
C#CCOC[C@@H](NC(C)=O)C(=O)NCc1ccccc1 [(R)-7] | 149 °C
C#CCOC[C@H](NC(C)=O)C(=O)NCc1ccc(N=[N+]=[N-])cc1 [(S)-8] | 135 to 136.5 °C

q: Indicate its recorded melting point; the compound in question is C#CCOC[C@@H](NC(C)=O)C(=O)NCc1ccc(N=[N+]=[N-])cc1 [(R)-8]
a: 135 to 136 °C

---

Entries and their Tox, TD50 values follow.
System: behavioral toxicity
Test: Toxicity (behavioral toxicity), rat (po)
Assay type: in vivo
Conditions: behavioral toxicity, Table b608
Protocol: Tests are conducted in groups of at least 8 mice or rats to determine the intrinsic neurotoxicity (neuromuscular impairment) after administration of the test compound by the route of administration to be used in the pharmacology studies. Neurotoxicity is determined in male CF No 1 mice by the rotarod procedure. […] In Sprague-Dawley rats, minimal motor impairment (MMI) is determined by overt evidence of ataxia, abnormal gait, and stance.

compound | measurement target | result
COC[C@@H](NC(C)=O)C(=O)NCc1ccc(OCc2ccc(F)cc2)cc1 [(R)-22] | behavioral toxicity | >500 milligrams per kilogram
COC[C@@H](NC(C)=O)C(=O)NCc1ccc(OCc2ccccc2)cc1 [(R)-20] | behavioral toxicity | >250 [1.0] milligrams per kilogram
COC[C@@H](NC(C)=O)C(=O)NCc1ccc(OCc2ccccc2F)cc1 [(R)-21] | behavioral toxicity | >500 milligrams per kilogram

Please find the next compound below.
q: Indicate its recorded Tox, TD50; the compound in question is COC[C@@H](NC(C)=O)C(=O)NCc1ccc(OCc2cccc(F)c2)cc1 [(R)-10]
a: >500 [0.5] milligrams per kilogram

---

Entries and their Tox, TD50 values follow.
Tested on: neurologic toxicity (rotorod test)
Test: Neurologic toxicity, rotorod test, mice (ip)
Assay type: in vivo
Settings: rotorod test, Table 3

# example entries with known answers
compound | result
CC(=O)N[C@@H](C)C(=O)NCc1ccc(OCc2cccc(F)c2)cc1 [(S)-6, reference compound] | >300 [0.5] milligrams per kilogram
COC[C@@H](NC(C)=O)C(=O)NCc1ccc(OCc2cccc(F)c2)cc1 [(R)-10] | 26 [0.5] milligrams per kilogram

Please find the next compound below.
q: Indicate its recorded Tox, TD50; the compound in question is COC[C@H](NC(C)=O)C(=O)NCc1ccc(OCc2cccc(F)c2)cc1 [(S)-10]
a: >300 milligrams per kilogram

---

test readout: melting point

# example entries with known answers
molecule | test readout | result
C#CCOC[C@H](NC(C)=O)C(=O)NCc1ccc(N=C=S)cc1 [(S)-9] | melting point | 157 to 158 °C
C#CCOC[C@H](NC(C)=O)C(=O)NCc1ccccc1 [(S)-7] | melting point | 148.5 to 149 °C

Please find the next molecule below.
q: Indicate its recorded melting point; the molecule in question is COC[C@@H](NC(C)=O)C(=O)NCc1ccc(COCc2cccc(F)c2)cc1 [(R)-18]
a: 140 to 142 °C
